target: T1, Anti-CD28 scFv (VH-linker 1-VL) (biotinylated (site not stated)); assay: phage binding ELISA on captured biotinylated anti-CD28 scFv;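 further: crude clonal phage supernatants applied to the wells, bound phage read out with an HRP-conjugated anti-M13 antibody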
T1 construct: biotinylated and captured on neutravidin coated plates in the phage ELISA
T1 sequence (scFv, as listed by the source): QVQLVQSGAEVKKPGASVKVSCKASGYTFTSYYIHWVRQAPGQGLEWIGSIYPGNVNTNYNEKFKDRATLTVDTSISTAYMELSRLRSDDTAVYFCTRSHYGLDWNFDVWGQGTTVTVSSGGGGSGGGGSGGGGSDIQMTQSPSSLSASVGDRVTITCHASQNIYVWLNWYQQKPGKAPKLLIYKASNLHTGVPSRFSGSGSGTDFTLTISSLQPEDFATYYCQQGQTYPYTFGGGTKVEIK
Define the label as t when CD28 scFv signal is strictly less than 2 and as f in all remaining cases.

BINDER	LABEL VALUE
MSWCPWDMWNECFA [Phage-403]	t
MHWCPRDLWYECFA [Phage-369]	t
LAGCQRDLATVCVI [Phage-383]	t
MFWCPKDMWAECFA [Phage-408]	t
IDWCPRALWDACLA [Phage-332]	f
MAWCPLDLWDKCFY [Phage-374]	t
